B1: KLHL14 (parent)
chain: NETGYLSSVECYNLETNEWRYVSS

Variants of: B1
assayRemarks: protein stability index of a GFP-peptide fusion (GPS, HEK-293T) (PSI 1-6); higher = more stable;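 further: lentivirally expressed fusions sorted by FACS into six bins by GFP to DsRed ratio, PSI derived from sequencing read proportions per bin multiplied by bin number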
conditionSummary: c terminus: a fixed tail appended
Assign class by protein stability index: not lower than 3 means 1.0; lower than 3 means 0.0.

Use these answered entries as a reference point.
Problem: Determine whether this variant has protein stability index no lower than 3: "E18I"
Result: 0.0

Problem: Quick check: does "S23N" have protein stability index greater than or equal to 3?
Result: 1.0

Problem: Reported protein stability index reaches at least 3 for "V22C" ?
Result: 0.0

Problem: Please indicate if the recorded protein stability index for "Y5C" meets or exceeds 3.
Result: 1.0

Problem: Is protein stability index at least 3? Consider "Y12R"
Result: 1.0

Problem: Kindly determine if protein stability index recorded for "L6V" is above or exactly 3.
Result: 1.0

Problem: Test whether the variant "S8V" records protein stability index of 3 or higher.
Result: 0.0

Problem: // inclusive: protein stability index at least 3? input: "L14W"
Result: 1.0

More entries:
Problem: Check if protein stability index >= 3 (inclusive). Item: "G4H"
Result: 1.0

src = the supplement of paper PMC10567573
